meta.source: patent US10450347B2

target: PD-1-Ig/PD-L1-His (Homo sapiens, UniProt Q9NZQ7); construct: [hPD-L1(19-239)-tobacco vein mottling virus protease cleavage site (TVMV)-His]; made in house; host or cells: HEK293T cells; assay: PD-1/PD-L1 Homogenous Time-Resolved Fluorescence (HTRF) binding assay; details: inhibition of PD-1-Ig binding to PD-L1-TVMV-His; range classes
Sequence (Q9NZQ7 with tags, fused parts or gaps): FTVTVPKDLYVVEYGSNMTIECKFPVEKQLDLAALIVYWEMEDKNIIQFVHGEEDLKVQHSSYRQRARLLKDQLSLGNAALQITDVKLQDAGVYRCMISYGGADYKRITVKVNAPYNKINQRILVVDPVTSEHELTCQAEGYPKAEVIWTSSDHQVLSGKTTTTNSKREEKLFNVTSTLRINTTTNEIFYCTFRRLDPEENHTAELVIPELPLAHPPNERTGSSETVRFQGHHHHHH
Starred links: 1 amine or outer side, 2 acyl side, 3 side chain; linkers in the order of their positions; H or OH if unused. Positions of bridges follow the written chain, without caps; N, C: chain ends. Non-standard residues stand in square brackets, D forms with d. Residues, ends and D or L forms follow the SMILES beside them. X1 = CCCC[C@@H](C(=O)[*:2])n1nnnc1[C@H](Cc1c[nH]c2ccccc12)N[*:1]; Hyp = O=C(O)[C@@H]1C[C@@H](O)CN1; NMeNle = CCCC[C@H](NC)C(=O)O; NMeA = CN[C@@H](C)C(=O)O; Dap = NC[C@H](N)C(=O)O
Assignment: determine reported IC50 for the given compounds.

I am curious: what IC50 value has been reported for CCCC[C@H]1C(=O)N[C@@H](CCC(=O)O)C(=O)N[C@H](C(=O)NCC(N)=O)CSCC(=O)N[C@@H](Cc2ccc(O)cc2)C(=O)N(C)[C@@H](C)C(=O)N[C@@H](CC(=O)O)C(=O)N2CCC[C@H]2C(=O)N[C@@H](CN)C(=O)N[C@@H](CCC(=O)O)C(=O)N2C[C@H](O)C[C@H]2C(=O)N[C@@H](Cc2c[nH]c3ccccc23)C(=O)N[C@@H](CO)C(=O)N[C@@H](Cc2c[nH]c3ccccc23)c2nnnn2[C@@H](CCCC)C(=O)N1C [Example 1101] ({CH2CO}-Y[NMeA]DP[Dap]E[Hyp]WS[X1][NMeNle]ECG-NH2; thioether N-13) ?
0.1 to 10 µM

I am curious: what IC50 value has been reported for CCCC[C@H]1C(=O)N(C)CC(=O)N[C@@H](CC(=O)O)C(=O)N[C@@H](C(C)C)C(=O)N(C)[C@@H](Cc2ccccc2)C(=O)N[C@@H](Cc2ccc(O)cc2)C(=O)N(C)CC(=O)N[C@@H](Cc2c[nH]c3ccccc23)C(=O)N[C@@H](Cc2ccc(O)cc2)C(=O)N[C@@H](CC(C)C)C(=O)N[C@H](C(=O)NCC(N)=O)CSCC(=O)NC(Cc2ccccc2)c2nnnn2[C@@H](Cc2ccccc2)C(=O)N1C (single isomer, unassigned) [Example 3002] ?
0.1 to 10 µM
